- method.notes: Clearance in Sprague-Dawley rat at 1 mg/kg, iv and 2 mg/kg, po
- Format: ADME, organism-based
- condition.label: in vivo
endpoint.name: clearance (mL/min/kg)

compound: CC(C)C1(c2ccc(-c3ccc4ccccc4c3)[nH]c2=O)OC(O)=NC1=O (stereo not drawn)
endpoint.name: clearance
recorded.measurement: 5.1
//
compound: CC(C)C1(c2cc(Cl)c(-c3ccc4ccccc4c3)[nH]c2=O)OC(=O)NC1=O (stereo not drawn)
endpoint.name: clearance
recorded.measurement: 1.2
//
compound: Cc1cc(C2(C(C)C)OC(=O)NC2=O)c(=O)[nH]c1-c1ccc2ccccc2c1 (stereo not drawn)
endpoint.name: clearance
recorded.measurement: 1.4
